Test: Pharmacokinetic behavior in mice (plasma concentration by LC-MS/MS)
Type: in vivo
Details: male ICR mice, Intravenous injection (1 mg/kg)
Hi there, I'd appreciate the recorded Cmax for every entry that follows.
Give a bare numeral; the unit ng/mL is implied.

The molecule identified as CC(C)(O)c1cc2nn([C@H]3CC[C@H](CCN4CCN5c6ccc(C7CCC(=O)NC7=O)cc6OCC5C4)CC3)cc2cc1NC(=O)c1cccc(C(F)(F)F)n1 (stereo partly shown) registered its Cmax at 1740

The molecule identified as CC(C)(O)c1cc2nn([C@H]3CC[C@H](CCN4CCN5c6ccc(C7CCC(=O)NC7=O)cc6OC[C@@H]5C4)CC3)cc2cc1NC(=O)c1cccc(C(F)(F)F)n1 (stereo partly shown) registered its Cmax at 832

The molecule identified as CC(C)(O)c1cc2nn([C@H]3CC[C@H](CCN4CCN5c6ccc(C7CCC(=O)NC7=O)cc6OC[C@H]5C4)CC3)cc2cc1NC(=O)c1cccc(C(F)(F)F)n1 (stereo partly shown) registered its Cmax at 1083

The molecule identified as COc1cc2nn([C@H]3CC[C@H](CCN4CCC5(CC4)OCc4cc(C6CCC(=O)NC6=O)ccc45)CC3)cc2cc1NC(=O)c1cccc(C(F)(F)F)n1 (stereo partly shown) registered its Cmax at 128

====

Biological target: IRAK4-HiBiT fusion protein (Homo sapiens)
Construct: K562 from ATCC
Sequence (Q9NWZ3 whole entry, the tested form may be a part): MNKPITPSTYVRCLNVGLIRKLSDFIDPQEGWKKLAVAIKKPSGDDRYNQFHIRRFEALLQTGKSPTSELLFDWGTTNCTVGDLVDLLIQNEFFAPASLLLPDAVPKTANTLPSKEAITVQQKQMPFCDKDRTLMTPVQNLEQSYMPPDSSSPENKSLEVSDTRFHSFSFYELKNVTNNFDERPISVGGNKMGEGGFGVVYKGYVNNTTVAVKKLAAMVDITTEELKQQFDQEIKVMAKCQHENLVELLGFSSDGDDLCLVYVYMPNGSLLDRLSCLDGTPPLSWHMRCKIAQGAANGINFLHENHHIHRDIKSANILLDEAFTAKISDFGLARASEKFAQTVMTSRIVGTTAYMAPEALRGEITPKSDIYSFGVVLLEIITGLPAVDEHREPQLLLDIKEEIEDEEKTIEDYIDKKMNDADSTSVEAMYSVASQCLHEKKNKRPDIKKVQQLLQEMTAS
Assay: Detection of HiBiT-IRAK4 proteolysis levels in K562 IRAK4-HiBiT cells (Nano-Glo HiBiT Lytic assay)
Assay type: cell-based
Conditions: 2 h incubation
reported_property: Dmax (%)
Give a bare numeral; the unit % is implied.

The molecule identified as CC(C)(O)c1cc2nn([C@H]3CC[C@H](CCN4CCN5c6ccc(C7(C)CCC(=O)NC7=O)cc6OC[C@H]5C4)CC3)cc2cc1NC(=O)c1cccc(C(F)(F)F)n1 (single isomer, unassigned) [Compound 120-b-2] registered its Dmax at 93

The molecule identified as CC(C)(O)c1cc2nn([C@H]3CC[C@H](CCN4CCN5c6ccc(C7CCC(=O)NC7=O)cc6OC[C@H]5C4)CC3)cc2cc1NC(=O)c1cccc(C(F)(F)F)n1 (stereo partly shown) [Compound 1-b] registered its Dmax at 88

The molecule identified as CC(C)(O)c1cc2nn([C@H]3CC[C@H](CCN4CCN5c6ccc(C7CCC(=O)NC7=O)cc6CCC5C4)CC3)cc2cc1NC(=O)c1cccc(C(F)(F)F)n1 (stereo partly shown) [Compound 119] registered its Dmax at 93

The molecule identified as CC(C)(O)c1cc2nn(C3CCN(CCN4CCN5c6ccc(C7CCC(=O)NC7=O)cc6OCC5C4)CC3)cc2cc1NC(=O)c1cccc(C(F)(F)F)n1 (stereo not shown) [Compound 99] registered its Dmax at 66

The molecule identified as CN1C(=O)C2(CCN(CC[C@H]3CC[C@H](n4cc5cc(NC(=O)c6cccc(C(F)(F)F)n6)c(C(C)(C)O)cc5n4)CC3)CC2)c2ccc(C3CCC(=O)NC3=O)cc21 (stereo partly shown) [Compound 121] registered its Dmax at 92

The molecule identified as [2H]C1(c2ccc3c(c2)OCC2CN(CCC4CCC(n5cc6cc(NC(=O)c7cccc(C(F)(F)F)n7)c(C(C)(C)O)cc6n5)CC4)CCN32)CCC(=O)NC1=O (stereo not shown) [Compound 101] registered its Dmax at 87

The molecule identified as CC(C)(O)c1cc2nn([C@H]3CC[C@H](CCN4CCC5(CC4)OC(=O)c4cc(C6CCC(=O)NC6=O)ccc45)CC3)cc2cc1NC(=O)c1cccc(C(F)(F)F)n1 (stereo partly shown) [Compound 93] registered its Dmax at 94

The molecule identified as CC(C)(O)c1cc2nn([C@H]3CC[C@H](CCN4CCN5c6ccc(C7(C)CCC(=O)NC7=O)cc6OCC5C4)CC3)cc2cc1NC(=O)c1cccc(C(F)(F)F)n1 (stereo partly shown) [Compound 120] registered its Dmax at 90

The molecule identified as CC(C)(O)c1cc2nn(C3CCC(CCN4CCN5c6c(F)cc(NC7CCC(=O)NC7=O)cc6OCC5C4)CC3)cc2cc1NC(=O)c1cccc(C(F)(F)F)n1 (stereo not shown) [Compound 113] registered its Dmax at 89

The molecule identified as CC(C)(O)c1cc2nn([C@H]3CC[C@H](CCN4CCN5c6c(F)cc(C7CCC(=O)NC7=O)cc6OCC5C4)CC3)cc2cc1NC(=O)c1cccc(C(F)(F)F)n1 (stereo partly shown) [Compound 4] registered its Dmax at 90

The molecule identified as CC(C)Oc1cc2nc([C@H]3CC[C@H](CCN4CCN5c6ccc(C7CCC(=O)NC7=O)cc6OCC5C4)CC3)cn2cc1C(=O)Nc1cnn2cccnc12 (stereo partly shown) [Compound 100] registered its Dmax at 89

The molecule identified as CC(C)(O)c1cc2nn([C@H]3CC[C@H](CCN4CCN5c6ccc(N7CCC(=O)NC7=O)cc6CCC5C4)CC3)cc2cc1NC(=O)c1cccc(C(F)(F)F)n1 (stereo partly shown) [Compound 118] registered its Dmax at 61

The molecule identified as CC(C)(O)c1cc2nn([C@H]3CC[C@H](CCN4CCN5c6ccc(C7CCC(=O)NC7=O)cc6OC[C@@H]5C4)CC3)cc2cc1NC(=O)c1cccc(C(F)(F)F)n1 (stereo partly shown) [Compound 1-a] registered its Dmax at 90
